Task for the reader: assign each of the following molecules its reported Plant response rating, Ryegrass, Italian.
# Tested on: ryegrass, Italian (Lolium multiflorum)
# method_notes: Test A postemergence, Italian ryegrass
# Assay type: in vivo
# condition_summary: 500 g ai/ha, visual injury, 0 to 100 scale (0 no effect, 100 complete control), approximately 10 days

molecule: O=C1NCC(c2cccc(OCc3ccccc3)c2)C1C(=O)Nc1ccc(F)cc1F (stereo not shown)
result: 0
--
molecule: CN1CC(c2cccc(Oc3ccc(C(F)(F)F)cn3)c2)C(C(=O)Nc2cccc(F)c2F)C1=O (single isomer, unassigned)
result: 30
--
molecule: CN1CC(c2cccc(OC(F)(F)C(F)OC(F)(F)F)c2)C(C(=O)Nc2cccc(F)c2F)C1=O (stereo not shown)
result: 40
--
molecule: CN1CC(c2cccc(Oc3ccc(F)cn3)c2)C(C(=O)Nc2cccc(F)c2F)C1=O (single isomer, unassigned)
result: 70
--
molecule: CN1CC(c2cccc(Oc3ncc(F)cn3)c2)C(C(=O)Nc2cccc(F)c2F)C1=O (single isomer, unassigned)
result: 80
--
molecule: CN1CC(c2cccc(Oc3ncc(F)cn3)c2)C(C(=O)Nc2ccccc2F)C1=O (single isomer, unassigned)
result: 50

Please state Plant response rating, Ryegrass, Italian for every molecule in the list that follows.
1. O=C1NCC(c2cccc(Oc3ncc(Cl)cn3)c2)C1C(=O)Nc1ccccc1F (stereo not shown)
2. O=C1NCC(c2cccc(OCC3OCCO3)c2)C1C(=O)Nc1cccc(F)c1F (stereo not shown)

1. 30
2. 20

Please state Plant response rating, Ryegrass, Italian for every molecule in the list that follows.
1. O=C1NCC(c2cccc(OCc3ccco3)c2)C1C(=O)Nc1ccccc1F (stereo not shown)
2. O=C1NCC(c2cccc(Oc3ccccn3)c2)C1C(=O)Nc1ccc(F)c(F)c1F (stereo not shown)

0
0

---

Task for the reader: assign each of the following compounds its reported Plant response rating, Foxtail, Giant.
# Tested on: foxtail, giant (Setaria faberii)
# method_notes: Test A preemergence, giant foxtail
# Format: in vivo
# condition_summary: 500 g ai/ha, 0 to 100 scale (0 no effect, 100 complete control)
Give bare numbers.

compound: O=C1NCC(c2cccc(COc3ccccc3)c2)C1C(=O)Nc1ccccc1F (stereo not drawn)
target_system: foxtail, giant (Setaria faberii)
Plant response rating, Foxtail, Giant: 80

Please state Plant response rating, Foxtail, Giant for every compound in the list that follows.
1. O=C1NCC(c2cccc(OCC3CC3)c2)C1C(=O)Nc1ccccc1Cl (stereo not drawn)
2. O=C1NCC(c2cccc(OCC3CC3)c2)C1C(=O)Nc1ccc(F)cc1F (stereo not drawn)

[90, 80]

---

# System: blackgrass (Alopecurus myosuroides)
# method_notes: Test A postemergence, blackgrass
# Type: in vivo
# condition_summary: 125 g ai/ha, visual injury, 0 to 100 scale (0 no effect, 100 complete control), approximately 10 days
endpoint_name: Plant response rating, Blackgrass
Answers are plain numbers.

Known Plant response rating, Blackgrass results, listed for orientation:
compound: CN1CC(c2cccc(Oc3ncc(F)cn3)c2)C(C(=O)Nc2cccc(F)c2F)C1=O (single isomer, unassigned)
target_system: blackgrass (Alopecurus myosuroides)
readout_number: 70

compound: CN1CC(c2cccc(Oc3ccc(F)cc3)c2)C(C(=O)Nc2cccc(F)c2F)C1=O (single isomer, unassigned)
target_system: blackgrass (Alopecurus myosuroides)
readout_number: 0

compound: O=C1NCC(c2cccc(Cn3ccc(C(F)(F)F)n3)c2)C1C(=O)Nc1ccc(F)cc1F (centres unmarked)
target_system: blackgrass (Alopecurus myosuroides)
readout_number: 0

compound: CON=Cc1cccc(C2CN(C)C(=O)C2C(=O)Nc2ccccc2F)c1 (centres unmarked)
target_system: blackgrass (Alopecurus myosuroides)
readout_number: 0

compound: O=C1NCC(c2cccc(Cn3cncn3)c2)C1C(=O)Nc1cccc(F)c1F (centres unmarked)
target_system: blackgrass (Alopecurus myosuroides)
readout_number: 0

Please state Plant response rating, Blackgrass for every compound in the list that follows.
1. O=C1NCC(c2cccc(OC(F)(F)C(F)OC(F)(F)F)c2)C1C(=O)Nc1ccccc1F (centres unmarked)
2. CN1CC(c2cccc(Oc3ncc(F)cc3F)c2)C(C(=O)Nc2cccc(F)c2F)C1=O (single isomer, unassigned)
3. O=C1NCC(c2cccc(OCC3OCCO3)c2)C1C(=O)Nc1cccc(F)c1F (centres unmarked)
4. O=C1NCC(c2cccc(OCc3ccccc3)c2)C1C(=O)Nc1cccc(F)c1F (centres unmarked)
5. O=C1NCC(c2cccc(COc3ccccc3)c2)C1C(=O)Nc1ccc(F)cc1F (centres unmarked)
6. O=C1NCC(c2cccc(Oc3ccccn3)c2)C1C(=O)Nc1cccc(F)c1F (centres unmarked)

[0, 40, 0, 0, 0, 0]

Please state Plant response rating, Blackgrass for every compound in the list that follows.
1. O=C1NCC(c2cccc(OCC3OCCO3)c2)C1C(=O)Nc1ccccc1F (centres unmarked)
2. O=C1NCC(c2cccc(OCc3ccccc3)c2)C1C(=O)Nc1ccccc1Cl (centres unmarked)
3. O=C1NCC(c2cccc(OCc3ccco3)c2)C1C(=O)Nc1ccccc1C(F)(F)F (centres unmarked)
4. CN1CC(c2cccc(Oc3ncc(F)cn3)c2)C(C(=O)Nc2ccccc2F)C1=O (single isomer, unassigned)
5. O=C1NCC(c2cccc(Oc3ncc(F)cn3)c2)C1C(=O)Nc1ccccc1F (single isomer, unassigned)

1: 0; 2: 0; 3: 0; 4: 20; 5: 0

Please state Plant response rating, Blackgrass for every compound in the list that follows.
1. O=C1NCC(c2cccc(Oc3ccc(C(F)(F)F)cn3)c2)C1C(=O)Nc1ccccc1F (single isomer, unassigned)
2. CN1CC(c2cccc(Oc3ncc(F)cc3F)c2)C(C(=O)Nc2ccccc2F)C1=O (single isomer, unassigned)
3. O=C1NCC(c2cccc(Oc3ccc(C(F)(F)F)cn3)c2)C1C(=O)Nc1cccc(F)c1F (single isomer, unassigned)
4. CN1CC(c2cccc(Oc3ccc(F)cn3)c2)C(C(=O)Nc2ccccc2F)C1=O (single isomer, unassigned)
5. CN1CC(c2cccc(Sc3ccccc3)c2)C(C(=O)Nc2cccc(F)c2F)C1=O (single isomer, unassigned)
6. CC1(COc2cccc(C3CNC(=O)C3C(=O)Nc3ccccc3C(F)(F)F)c2)COC1 (centres unmarked)

1: 0; 2: 60; 3: 0; 4: 0; 5: 0; 6: 0

Please state Plant response rating, Blackgrass for every compound in the list that follows.
1. O=C1NCC(c2cccc(OCC3CC3)c2)C1C(=O)Nc1ccc(F)cc1F (centres unmarked)
2. O=C1NCC(c2cccc(OCc3ccccc3)c2)C1C(=O)Nc1ccccc1F (centres unmarked)
3. CN1CC(c2cccc(Oc3ccc(F)cn3)c2)C(C(=O)Nc2cccc(F)c2F)C1=O (single isomer, unassigned)
4. CN1C[C@H](c2cccc(Oc3ccc(F)cn3)c2)[C@@H](C(=O)Nc2ccc(F)c(F)c2F)C1=O

1. 0
2. 0
3. 40
4. 60
